STUDY_TARGET: D(2) dopamine receptor (Rattus norvegicus)
Sequence (P61169 whole entry): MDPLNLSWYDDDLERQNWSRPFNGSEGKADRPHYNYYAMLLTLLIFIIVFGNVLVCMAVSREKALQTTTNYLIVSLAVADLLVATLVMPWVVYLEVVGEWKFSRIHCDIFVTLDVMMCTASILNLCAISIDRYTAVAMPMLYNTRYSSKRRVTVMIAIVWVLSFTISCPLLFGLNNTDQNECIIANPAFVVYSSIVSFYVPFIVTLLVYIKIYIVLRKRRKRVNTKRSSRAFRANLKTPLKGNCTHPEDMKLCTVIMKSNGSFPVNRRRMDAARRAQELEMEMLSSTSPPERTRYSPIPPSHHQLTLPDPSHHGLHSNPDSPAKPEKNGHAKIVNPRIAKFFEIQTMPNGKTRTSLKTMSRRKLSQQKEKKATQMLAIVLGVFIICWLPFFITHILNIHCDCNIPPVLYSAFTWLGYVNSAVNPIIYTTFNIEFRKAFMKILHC
TEST_METHOD_NOTES: Inhibitory activity against Dopamine receptor D2 in rat corpus striatum using [3H]Apomorphine as radioligand
Type: tissue-based
EXPERIMENTAL_ENDPOINT: IC50 (nM)

I: CCCCN(CCC)C1CCc2n[nH]cc2C1 (configuration not stated)
II: CCCN(C)C1CCc2n[nH]cc2C1 (configuration not stated)
**Q:** Select one: I or II . Criterion: greater recorded IC50. Write down the label attached to your selection.
**A:** II

###

Test system: Rattus norvegicus
TEST_METHOD_NOTES: Effect on 3,4-Dihydroxyphenylacetic acid concentration in whole rat brain when 10 mg/Kg was administered intraperitoneally
Type: functional
EXPERIMENTAL_ENDPOINT: Turnover (nmol/g)
Give your result in nmol/g as a bare value.

{"columns": ["COMPOUND", "Turnover / nmol/g"],
 "data": [
  ["CCCNC1CCc2n[nH]cc2C1 (configuration not stated)", 0.51],
  ["CCNC1CCc2n[nH]cc2C1 (configuration not stated)", 0.55],
  ["CCCN(CCc1cccs1)C1CCc2n[nH]cc2C1 (configuration not stated)", 0.43],
  ["c1csc(CCNC2CCc3n[nH]cc3C2)c1 (configuration not stated)", 0.49],
  ["CCCNC1CCc2nc(N)sc2C1 (configuration not stated)", 0.35]
]}

**Q:** Input CSCCCNC1CCc2n[nH]cc2C1 (configuration not stated) , output reported Turnover.
**A:** 0.49

**Q:** Let me know recorded Turnover for CCCCN(CCC)C1CCc2n[nH]cc2C1 (configuration not stated) , thanks.
**A:** 0.39

###

STUDY_TARGET: UniProt:P20288
Sequence (P20288 whole entry): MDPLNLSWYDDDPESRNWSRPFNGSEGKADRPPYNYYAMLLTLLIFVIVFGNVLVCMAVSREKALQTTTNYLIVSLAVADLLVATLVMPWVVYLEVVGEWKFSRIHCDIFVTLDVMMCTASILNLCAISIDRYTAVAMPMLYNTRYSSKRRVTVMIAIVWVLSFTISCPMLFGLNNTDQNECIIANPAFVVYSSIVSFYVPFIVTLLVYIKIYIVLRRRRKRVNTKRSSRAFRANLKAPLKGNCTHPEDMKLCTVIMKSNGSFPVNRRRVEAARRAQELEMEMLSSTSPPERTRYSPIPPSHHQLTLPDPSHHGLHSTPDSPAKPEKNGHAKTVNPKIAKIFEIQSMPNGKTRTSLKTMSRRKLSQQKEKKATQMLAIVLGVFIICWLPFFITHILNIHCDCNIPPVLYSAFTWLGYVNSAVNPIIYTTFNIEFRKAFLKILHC
TEST_METHOD_NOTES: Inhibitory activity against Dopamine receptor D2 in calf corpus striatum using [3H]spiperone as radioligand
Assay type: tissue-based
EXPERIMENTAL_ENDPOINT: IC50 (µM)

{"columns": ["COMPOUND", "READOUT_VALUE"],
 "data": [
  ["CCCN(C)C1CCc2n[nH]cc2C1 (configuration not stated)", 8.33],
  ["CCCCN(CCC)C1CCc2n[nH]cc2C1 (configuration not stated)", 10]
]}

###

Tested on: Rattus norvegicus
TEST_METHOD_NOTES: Effect on 3,4-Dihydroxyphenylacetic acid concentration in whole rat brain when 10 mg/Kg was administered intraperitoneally
Type: functional
Listing of recorded Turnover by entry.
Numbers only; they are read as nmol/g.

Some solved entries appear below for comparison.
{"columns": ["COMPOUND", "READOUT_VALUE"],
 "data": [
  ["CCCN1C[C@H](CSC)C[C@@H]2c3cccc4[nH]cc(c34)C[C@H]21 [PERGOLIDE]", 0.53],
  ["CCCN(CCCSC)C1CCc2n[nH]cc2C1 (stereo unspecified)", 0.28],
  ["CCCN(C)C1CCc2n[nH]cc2C1 (stereo unspecified)", 0.43],
  ["c1ccc(CCNC2CCc3n[nH]cc3C2)cc1 (stereo unspecified)", 0.51],
  ["CCCCNC1CCc2n[nH]cc2C1 (stereo unspecified)", 0.53]
]}

Now consider a different compound.
**Q:** Output measured Turnover for this item: CCCN(CCc1ccccc1)C1CCc2n[nH]cc2C1 (stereo unspecified)
**A:** 0.4

###

STUDY_TARGET: UniProt:P20288
TEST_METHOD_NOTES: Inhibitory activity against dopamine receptor D2 in calf corpus striatum using [3H]spiperone as radioligand
Assay type: tissue-based
EXPERIMENTAL_ENDPOINT: IC50 (µM)

{"columns": ["COMPOUND", "EXPERIMENTAL_ENDPOINT", "READOUT_VALUE"],
 "data": [
  ["CCCN(CCc1ccccc1)C1CCc2n[nH]cc2C1 (stereo not given)", "IC50", 1.06],
  ["CCNC1CCc2n[nH]cc2C1 (stereo not given)", "IC50", 11.6]
]}

I: CCCNC1CCc2n[nH]cc2C1 (stereo not given)
II: CCCN(CCCSC)C1CCc2n[nH]cc2C1 (stereo not given)
III: CCCN(CCc1cccs1)C1CCc2n[nH]cc2C1 (stereo not given)
**Q:** Order each entry by recorded IC50, climbing from the minimum. Form entry: labels listed in requested order.
**A:** III, II, I
(III: 1.41 µM, II: 3.99 µM, I: 15.2 µM)
